Would you kindly list kon for each of these binders?
Assay target: T1, murine CTLA4-Fc (R&D Systems) (mouse, UniProt P09793 36-162, limits assumed)
T1 construct: Bought fusion protein; also called mouse CTLA4; not shown: It was captured by an anti-human IgG-Fc antibody
Assay comment: SPR, Biacore T100, 25 C; CTLA4-Fc captured on anti-human IgG-Fc, mutein as analyte; 1:1 Langmuir fit
State the value with its unit after it.

# kon (binder: hNGALM2 (designed binder) QDSTSDLIPAPPLSKVPLQQNFQDNQFHGKWYVVGLAGNRLLRDDQHPMDMYATIYELKGDKSYNVTSVISSHKKCLYPIATFVPGSQPGEFTLGNIKSYGDKWSYLVRVVSTDYNQYAVVFFKHADTNYESFSITIYGRTKELASELKENFIRFSKSLGLPENHIVFPVPIDQCIDGSAWSHPQFEK ) is 298000 M⁻¹ s⁻¹

response.value for hNGALM7 (designed binder) QDSTSDLIPAPPLSKVPLQQNFQDNQFHGKWYVVGLAGNRILRLDQHPMPMYATIYELKGDKSYNVTSVISSHKKCLYPIATFVPGSQPGEFTLGNIRSYGDKTSYLVRVVSTDYNQYAVVFFKHADTNYESFSITIYGRTKELASELKENFIRFSKSLGLPENHIVFPVPIDQCIDGSAWSHPQFEK (field: kon) = 261000 M⁻¹ s⁻¹

binder hNGALM4 (designed binder) QDSTSDLIPAPPLSKVPLQQNFQDNQFHGKWYVVGLAGNRILRDDQHPMPMYATIYELKGDKSYNVTSVISSHKKCLYPIATFVPGSQPGEFTLGNIKSYGDKWSYLVRVVSTDYNQYAVVFFKHADSNYESFSITIYGRTKELASELKENFIRFSKSLGLPENHIVFPVPIDQCIDG , kon observed: 221000 M⁻¹ s⁻¹

kon reported for this binder hNGALM5 (designed binder) QDSTSDLIPAPPLSKVPLQQNFQDNQFHGKWYVVGLAGNRILRSDQHPMRMYATIYELKGDKSYNVTSVISSHKKCLYTIATFVPGSQPGEFTLGNIKSYGDKWSYLVRVVSTDYNQYAVVFFKHADTNYESFSITIYGRTKELASELKENFIRFSKSLGLPENHIVFPVPIDQCIDGSAWSHPQFEK : 813000 M⁻¹ s⁻¹

Consider hNGALM3 (designed binder) QDSTSDLIPAPPLSKVPLQQNFQDNQFHGKWYVVGLAGNRILRQDQHPMLMYATIYELKGDKSYNVTSVISSHKKCLYPIATFVPGSQPGEFTLGNIKSYGDKVSYLVRVVSTDYNQYAVVFFKHADTNYESFSITIYGRTKELASELKENFIRFSKSLGLPENHIVFPVPIDQCIDGSAWSHPQFEK . Its measured kon is 199000 M⁻¹ s⁻¹

Item: hNGALM6 (designed binder) QDSTSDLIPAPPLSKVPLQQNFQDNQFHGKWYVVGLAGNRILRSDQHPMPMYATIYELKGDKSYNVTSVISSHKKCLYSIATFVPGSQPGEFTLGNIKSYGDKESYLVRVVSTDYNQYAVVFFKYASDNDESFSITIYGRTKELASELKENFIRFSKSLGLPENHIVFPVPIDQCIDGSAWSHPQFEK | kon: 6.36e+07 M⁻¹ s⁻¹
